# SYSTEM NAME: BRAF V600E (Homo sapiens, UniProt P15056, V600E)
# Construct: expressed in transfected cells
# Sequence (P15056 whole entry V600E): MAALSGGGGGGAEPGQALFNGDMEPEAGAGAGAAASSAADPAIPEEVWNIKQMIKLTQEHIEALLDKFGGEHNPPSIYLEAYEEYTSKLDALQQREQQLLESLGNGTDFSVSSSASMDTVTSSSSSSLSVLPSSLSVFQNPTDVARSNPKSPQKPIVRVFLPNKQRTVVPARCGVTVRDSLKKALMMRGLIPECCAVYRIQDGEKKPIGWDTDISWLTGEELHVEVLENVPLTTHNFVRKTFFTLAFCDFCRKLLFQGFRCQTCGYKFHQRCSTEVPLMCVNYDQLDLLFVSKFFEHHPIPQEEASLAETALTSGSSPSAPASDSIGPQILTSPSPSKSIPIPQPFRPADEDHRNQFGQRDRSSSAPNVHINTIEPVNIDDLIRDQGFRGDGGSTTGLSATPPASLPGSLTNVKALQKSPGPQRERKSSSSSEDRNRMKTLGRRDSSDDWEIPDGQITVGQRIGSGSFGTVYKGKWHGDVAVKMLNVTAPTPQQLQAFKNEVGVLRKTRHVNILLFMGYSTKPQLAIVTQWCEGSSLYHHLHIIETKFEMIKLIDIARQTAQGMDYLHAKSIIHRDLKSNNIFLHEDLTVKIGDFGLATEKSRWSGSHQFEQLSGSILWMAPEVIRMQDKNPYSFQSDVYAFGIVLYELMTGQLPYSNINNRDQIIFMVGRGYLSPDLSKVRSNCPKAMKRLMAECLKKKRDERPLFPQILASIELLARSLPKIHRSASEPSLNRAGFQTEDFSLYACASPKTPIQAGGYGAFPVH
# METHOD NOTES: Cellular assay of target protein degradation, T-Rex 293 cells stably transfected with HA-BRAF_V600E (HA immunofluorescence, high content imaging)
# Assay type: cell-based
# CONDITION CONTEXT: maximum degradation observed, T-Rex 293 HA-BRAF V600E

{"COMPOUND": "CNc1cc(-c2cnc3[nH]cc(C(=O)c4c(F)ccc(NS(=O)(=O)N5CC[C@@H](F)C5)c4F)c3c2)cc(NC)c1N1CCC(CN2CCC(c3ccc4c(c3)CN([C@H]3CCC(=O)NC3=O)C4=O)CC2)CC1 [Compound 284]", "Dmax": "35 to 70%"}
{"COMPOUND": "O=C1CC[C@H](N2Cc3cc(N4CCC(CN5CCN(C6(c7ccc(-c8cnc9[nH]cc(C(=O)c%10c(F)ccc(NS(=O)(=O)N%11CC[C@@H](F)C%11)c%10F)c9c8)cn7)CC6)CC5)CC4)ccc3C2=O)C(=O)N1 [Compound 288]", "Dmax": "35 to 70%"}
{"COMPOUND": "O=C1CC[C@H](NC(=O)c2ccc(N3CC4(CN(CC5CCN(c6ccc(-c7cnc8[nH]cc(C(=O)c9c(F)ccc(NS(=O)(=O)N%10CC[C@@H](F)C%10)c9F)c8c7)cc6)CC5)C4)C3)cc2F)C(=O)N1 [Compound 31]", "Dmax": "35 to 70%"}
{"COMPOUND": "CCCS(=O)(=O)Nc1ccc(F)c(C(=O)c2c[nH]c3ncc(-c4ccc(N5CCN(CC6CCN(c7ccc8c(c7)CN([C@H]7CCC(=O)NC7=O)C8=O)CC6)CC5)cc4)cc23)c1F [Compound 243]", "Dmax": "35 to 70%"}
{"COMPOUND": "O=C1CCC(N2Cc3cc(N4CCC(CN5CC(C6(c7ccc(-c8cnc9[nH]cc(C(=O)c%10c(F)ccc(NS(=O)(=O)N%11CC[C@@H](F)C%11)c%10F)c9c8)cc7)CC6)C5)CC4)ccc3C2=O)C(=O)N1 (stereo partly drawn) [Compound 316]", "Dmax": "< 35%"}
{"COMPOUND": "O=C1CCC(N2Cc3cc(CCCN4CC5(C4)CN(c4ccc(-c6cnc7[nH]cc(C(=O)c8c(F)ccc(NS(=O)(=O)N9CC[C@@H](F)C9)c8F)c7c6)cn4)C5)ccc3C2=O)C(=O)N1 (stereo partly drawn) [Compound 141]", "Dmax": "35 to 70%"}
{"COMPOUND": "O=C1CC[C@@H](N2Cc3cc(C4CN(CC5CC6(C5)CN(c5ccc(-c7cnc8[nH]cc(C(=O)c9c(F)ccc(NS(=O)(=O)N%10CC[C@@H](F)C%10)c9F)c8c7)cc5)C6)C4)ccc3C2=O)C(=O)N1 [Compound 100]", "Dmax": "35 to 70%"}
{"COMPOUND": "O=C1CCC(N2Cc3cc(C4CCN(CC[C@@H]5CCN(c6ccc(-c7cnc8[nH]cc(C(=O)c9c(F)ccc(NS(=O)(=O)N%10CC[C@@H](F)C%10)c9F)c8c7)cc6)C5)CC4)ccc3C2=O)C(=O)N1 (stereo partly drawn) [Compound 216]", "Dmax": "< 35%"}
{"COMPOUND": "COc1cc(C2CCN(CC3CC4(C3)CN(c3ccc(-c5cnc6[nH]cc(C(=O)c7c(F)ccc(NS(=O)(=O)N8CC[C@@H](F)C8)c7F)c6c5)cc3)C4)CC2)cc2c1C(=O)N(C1CCC(=O)NC1=O)C2 (stereo partly drawn) [Compound 54]", "Dmax": "35 to 70%"}

Recorded values, source patent US12180193B2.
